system: Escherichia coli TOP10; test: shrunken log2 fold change of peptide-encoding DNA abundance (4.5 h post-induction vs induction); higher = less antimicrobial activity (less host growth inhibition); settings: time post-induction: 4.5 h; library: site-saturation at positions 5, 18, 19, 20
METRIC_NAME: shrunken log2 fold change
Respond numerically, and do not add a unit to the figure.

RECORD_SEQUENCE: RRIRRRPPRLPRPRPRPQFAPRP
METRIC_NAME: shrunken log2 fold change
REPORTED_VALUE: 0.0495
//
RECORD_SEQUENCE: RRIRNRPPRLPRPRPRPCCIPRP
METRIC_NAME: shrunken log2 fold change
REPORTED_VALUE: -0.00191
//
RECORD_SEQUENCE: RRIRLRPPRLPRPRPRPLFPPRP
METRIC_NAME: shrunken log2 fold change
REPORTED_VALUE: -0.203
//
RECORD_SEQUENCE: RRIRERPPRLPRPRPRPPGMPRP
METRIC_NAME: shrunken log2 fold change
REPORTED_VALUE: 0.0408
//
RECORD_SEQUENCE: RRIRNRPPRLPRPRPRPRQEPRP
METRIC_NAME: shrunken log2 fold change
REPORTED_VALUE: 0.00772

*Q* May I ask what shrunken log2 fold change has been recorded for `RRIRARPPRLPRPRPRPSNWPRP` ?
*A* 0.253

*Q* Repeat for the following sequence: `RRIRRRPPRLPRPRPRPKAAPRP`
*A* 0.596

*Q* Repeat for the following sequence: `RRIRKRPPRLPRPRPRPWCIPRP`
*A* -0.103

*Q* Repeat for the following sequence: `RRIRNRPPRLPRPRPRPFMNPRP`
*A* -0.195

*Q* Repeat for the following sequence: `RRIRWRPPRLPRPRPRPVWYPRP`
*A* -0.18

*Q* Repeat for the following sequence: `RRIRERPPRLPRPRPRPIMSPRP`
*A* -0.38

*Q* Repeat for the following sequence: `RRIRSRPPRLPRPRPRPHVMPRP`
*A* -0.103

*Q* Repeat for the following sequence: `RRIRNRPPRLPRPRPRPGWMPRP`
*A* 0.142

*Q* Repeat for the following sequence: `RRIRNRPPRLPRPRPRPRWNPRP`
*A* -0.297

*Q* Repeat for the following sequence: `RRIRLRPPRLPRPRPRPMMPPRP`
*A* -0.174

---

system: Escherichia coli TOP10; test: shrunken log2 fold change of peptide-encoding DNA abundance (4.5 h post-induction vs induction); higher = less antimicrobial activity (less host growth inhibition); conditions: time post-induction: 4.5 h; library: site-saturation at positions 5, 18, 19, 20;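 note: peptides expressed intracellularly from a pBAD plasmid library in pooled LB shake-flask culture, induced with 0.3% L-arabinose, DNA abundance read by NGS, three biological replicates, DESeq2 with apeglm shrinkage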
Outcome label depends on shrunken log2 fold change relative to -0.04: at/above gives 1, below gives -1.

RECORD_SEQUENCE: RRIRRRPPRLPRPRPRPQASPRP
LABEL_CLASS: 1
--
RECORD_SEQUENCE: RRIRMRPPRLPRPRPRPHFDPRP
LABEL_CLASS: 1
--
RECORD_SEQUENCE: RRIRFRPPRLPRPRPRPTSGPRP
LABEL_CLASS: 1
--
RECORD_SEQUENCE: RRIRVRPPRLPRPRPRPPFFPRP
LABEL_CLASS: 1
--
RECORD_SEQUENCE: RRIRPRPPRLPRPRPRPHWPPRP
LABEL_CLASS: 1

From here, focus on the item given below.
*Q* Identify whether the reported shrunken log2 fold change of the following sequence is -0.04 or greater: `RRIRQRPPRLPRPRPRPVLQPRP`
*A* -1
